Hey, just so you know, these numbers are from patent US9999622B2.

Molecular target: JAK1 (Homo sapiens)
Construct: purchased Carna Biosciences, Inc
Sequence (P23458 whole entry): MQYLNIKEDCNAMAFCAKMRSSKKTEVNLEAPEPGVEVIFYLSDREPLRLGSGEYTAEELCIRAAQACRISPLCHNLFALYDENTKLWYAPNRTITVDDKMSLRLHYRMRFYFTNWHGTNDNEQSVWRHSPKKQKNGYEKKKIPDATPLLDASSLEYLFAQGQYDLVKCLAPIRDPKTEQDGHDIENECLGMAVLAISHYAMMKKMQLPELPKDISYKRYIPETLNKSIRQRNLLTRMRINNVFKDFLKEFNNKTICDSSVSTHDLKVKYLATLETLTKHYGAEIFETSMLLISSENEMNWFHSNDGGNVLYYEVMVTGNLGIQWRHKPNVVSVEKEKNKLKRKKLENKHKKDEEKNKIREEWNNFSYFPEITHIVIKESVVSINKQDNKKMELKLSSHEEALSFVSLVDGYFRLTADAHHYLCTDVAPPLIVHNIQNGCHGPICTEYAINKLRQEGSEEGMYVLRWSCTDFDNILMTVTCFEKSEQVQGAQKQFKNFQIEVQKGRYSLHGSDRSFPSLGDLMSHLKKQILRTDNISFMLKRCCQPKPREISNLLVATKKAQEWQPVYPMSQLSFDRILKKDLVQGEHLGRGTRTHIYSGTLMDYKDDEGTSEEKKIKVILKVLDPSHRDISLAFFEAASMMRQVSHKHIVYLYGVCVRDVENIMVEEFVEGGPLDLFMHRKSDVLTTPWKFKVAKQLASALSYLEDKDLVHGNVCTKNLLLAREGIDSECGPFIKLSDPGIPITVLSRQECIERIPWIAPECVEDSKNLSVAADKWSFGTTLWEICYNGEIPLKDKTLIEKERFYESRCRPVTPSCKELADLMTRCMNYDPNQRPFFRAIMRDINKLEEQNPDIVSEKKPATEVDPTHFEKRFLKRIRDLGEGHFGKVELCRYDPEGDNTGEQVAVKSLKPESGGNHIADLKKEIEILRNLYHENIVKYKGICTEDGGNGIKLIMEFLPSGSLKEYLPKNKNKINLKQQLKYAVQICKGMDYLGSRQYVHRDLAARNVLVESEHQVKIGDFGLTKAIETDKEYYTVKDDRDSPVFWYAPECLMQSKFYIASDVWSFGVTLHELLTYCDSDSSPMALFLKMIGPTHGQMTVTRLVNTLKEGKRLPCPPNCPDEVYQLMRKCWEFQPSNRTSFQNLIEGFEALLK
Test: JAK tyrosine kinase inhibitory activity in the presence of 1 mM ATP (ELISA), JAK1
Type: biochemical
Counter-ions that a name gives are not always drawn.
quantity-measured: IC50 (nM)

Please review the entries below; each comes with its answer.
>>> number("Cc1c(N[C@@H](C)C2CC2)nc(-c2cnn3ccsc23)nc1C(=O)N1CCC(NC(=O)C2CC2)CC1")
120
>>> number("CCC(=O)NC1CCN(C(=O)c2cc(N(C)C(CC)CC)nc(-c3cnn4ccsc34)n2)CC1")
210
>>> number("COc1ccc([C@@H](C)Nc2cc(C(=O)N3CCC(O)CC3)nc(-c3cnn4ccsc34)n2)cc1")
940
>>> number("CC(C)(C)[C@@H](CO)Nc1cc(C(=O)N2CCC(NC(=O)C3CC3)CC2)nc(-c2cnn3ccsc23)n1")
140
>>> number("COC(=O)NC1CCN(C(=O)c2cc(NC3CCNCC3)nc(-c3cnn4ccsc34)n2)CC1 [Example 143, dihydrochloride]")
1900
>>> number("COC(=O)NC1CCN(C(=O)c2cc(N[C@H](CO)C(C)(C)C)nc(-c3cnn4ccsc34)n2)CC1")
180

a: CCCOC(=O)NC1CCN(C(=O)c2cc(N[C@H](C)C(C)(C)C)nc(-c3cnn4ccsc34)n2)CC1
b: CC(C)C(=O)NC1CCN(C(=O)c2cc(N[C@H](C)c3ccc(F)cc3)nc(-c3cnn4ccsc34)n2)CC1
c: CC(=O)NC1CCN(C(=O)c2cc(N[C@@H](C)C(C)(C)C)nc(-c3cnn4ccsc34)n2)CC1
INPUT: Write the entries in order, lowest recorded IC50 first. # the answer lists labels in the order requested
OUTPUT: c, a, b
(c: 210 nM, a: 330 nM, b: 870 nM)

P: CC(C)(C)Nc1cc(C(=O)N2CCC(Nc3ccccn3)CC2)nc(-c2cnn3ccsc23)n1
Q: CCC(CC)Nc1cc(C(=O)N2CCC(NC(=O)OC)CC2)nc(-c2cnn3ccsc23)n1
INPUT: // max by IC50 over [ P , Q ] Kindly give the label for the entry you pick.
OUTPUT: P
(P: 310 nM, Q: 190 nM)

1: CC(C)[C@H](C)Nc1cc(C(=O)N2CCC(NC(=O)C3CC3)CC2)nc(-c2cnn3ccsc23)n1
2: COc1ccc([C@@H](C)Nc2cc(C(=O)N3CCC(NC(=O)C4CC4)CC3)nc(-c3cnn4ccsc34)n2)cc1
INPUT: # query: argmin of IC50 over 1 and 2 Kindly give the label for the entry you pick.
OUTPUT: 2
(2: 180 nM, 1: 260 nM)
